All values here come from patent US20200262877A1.

Here, each record is paired with measured Activity of Cav2.2 with peptide (percentage of the reference compound) data.
assayed-target: Cav2.2 (Homo sapiens, UniProt Q00975)
Construct: host or cells: HEK293 or CHO
Sequence (Q00975 whole entry): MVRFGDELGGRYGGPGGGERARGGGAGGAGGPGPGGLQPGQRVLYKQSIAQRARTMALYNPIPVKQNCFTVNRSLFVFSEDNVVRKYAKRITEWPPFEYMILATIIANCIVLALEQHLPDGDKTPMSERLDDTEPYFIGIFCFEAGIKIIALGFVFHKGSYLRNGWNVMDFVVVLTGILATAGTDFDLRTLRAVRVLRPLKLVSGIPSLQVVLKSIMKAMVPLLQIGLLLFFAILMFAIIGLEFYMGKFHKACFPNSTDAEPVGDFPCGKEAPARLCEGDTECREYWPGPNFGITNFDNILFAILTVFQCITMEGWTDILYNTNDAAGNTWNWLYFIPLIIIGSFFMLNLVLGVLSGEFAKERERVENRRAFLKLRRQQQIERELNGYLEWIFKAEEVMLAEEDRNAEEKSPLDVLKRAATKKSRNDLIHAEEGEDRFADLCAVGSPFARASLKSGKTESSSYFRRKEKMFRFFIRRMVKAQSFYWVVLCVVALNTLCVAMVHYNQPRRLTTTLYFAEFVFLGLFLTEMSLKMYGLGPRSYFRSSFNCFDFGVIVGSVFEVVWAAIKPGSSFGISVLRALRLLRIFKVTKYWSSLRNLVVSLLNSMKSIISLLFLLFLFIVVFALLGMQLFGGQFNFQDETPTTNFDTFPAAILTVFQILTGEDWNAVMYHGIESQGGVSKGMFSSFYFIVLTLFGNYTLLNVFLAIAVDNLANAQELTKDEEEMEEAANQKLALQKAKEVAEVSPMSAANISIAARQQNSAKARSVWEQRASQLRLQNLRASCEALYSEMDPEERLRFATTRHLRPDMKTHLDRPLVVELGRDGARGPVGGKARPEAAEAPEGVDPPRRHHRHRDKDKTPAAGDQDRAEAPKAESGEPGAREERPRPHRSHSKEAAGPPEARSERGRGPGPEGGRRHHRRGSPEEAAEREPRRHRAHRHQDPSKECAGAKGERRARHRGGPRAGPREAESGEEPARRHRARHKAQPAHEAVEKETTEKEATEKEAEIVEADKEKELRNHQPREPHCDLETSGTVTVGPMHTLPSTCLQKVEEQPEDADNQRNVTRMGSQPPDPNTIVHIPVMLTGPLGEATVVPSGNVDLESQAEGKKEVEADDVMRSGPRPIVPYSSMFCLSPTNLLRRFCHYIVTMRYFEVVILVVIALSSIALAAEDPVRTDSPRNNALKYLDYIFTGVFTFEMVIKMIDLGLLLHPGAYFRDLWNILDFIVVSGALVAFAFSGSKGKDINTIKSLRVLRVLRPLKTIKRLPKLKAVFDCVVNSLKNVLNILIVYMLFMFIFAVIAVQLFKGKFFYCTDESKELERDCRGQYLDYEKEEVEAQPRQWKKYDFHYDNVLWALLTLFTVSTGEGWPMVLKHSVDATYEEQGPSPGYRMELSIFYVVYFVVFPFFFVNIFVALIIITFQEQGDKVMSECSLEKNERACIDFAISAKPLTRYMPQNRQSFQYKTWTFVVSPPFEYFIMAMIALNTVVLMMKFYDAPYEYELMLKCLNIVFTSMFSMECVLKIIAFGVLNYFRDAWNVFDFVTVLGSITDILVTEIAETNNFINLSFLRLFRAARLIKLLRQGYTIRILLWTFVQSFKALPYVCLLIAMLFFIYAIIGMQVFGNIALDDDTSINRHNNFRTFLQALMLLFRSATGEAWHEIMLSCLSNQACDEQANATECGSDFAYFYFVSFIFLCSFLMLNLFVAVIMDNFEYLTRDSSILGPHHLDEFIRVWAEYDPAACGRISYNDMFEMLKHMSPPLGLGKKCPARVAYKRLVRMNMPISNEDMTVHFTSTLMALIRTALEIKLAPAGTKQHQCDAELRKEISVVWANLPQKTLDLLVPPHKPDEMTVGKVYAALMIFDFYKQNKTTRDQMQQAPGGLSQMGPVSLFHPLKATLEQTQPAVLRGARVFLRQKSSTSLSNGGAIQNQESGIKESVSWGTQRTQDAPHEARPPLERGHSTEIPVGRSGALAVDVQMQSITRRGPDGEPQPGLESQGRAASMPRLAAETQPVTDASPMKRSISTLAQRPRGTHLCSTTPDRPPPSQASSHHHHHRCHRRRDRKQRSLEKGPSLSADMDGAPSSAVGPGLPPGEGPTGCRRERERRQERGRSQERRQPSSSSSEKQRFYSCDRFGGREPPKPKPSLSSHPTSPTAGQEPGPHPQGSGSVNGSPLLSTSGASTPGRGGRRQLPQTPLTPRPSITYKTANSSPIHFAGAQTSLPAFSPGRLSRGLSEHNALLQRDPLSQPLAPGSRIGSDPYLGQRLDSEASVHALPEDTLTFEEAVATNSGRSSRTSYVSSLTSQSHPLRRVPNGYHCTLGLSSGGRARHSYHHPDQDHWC
Sequence (P54289 25-1103, further chain): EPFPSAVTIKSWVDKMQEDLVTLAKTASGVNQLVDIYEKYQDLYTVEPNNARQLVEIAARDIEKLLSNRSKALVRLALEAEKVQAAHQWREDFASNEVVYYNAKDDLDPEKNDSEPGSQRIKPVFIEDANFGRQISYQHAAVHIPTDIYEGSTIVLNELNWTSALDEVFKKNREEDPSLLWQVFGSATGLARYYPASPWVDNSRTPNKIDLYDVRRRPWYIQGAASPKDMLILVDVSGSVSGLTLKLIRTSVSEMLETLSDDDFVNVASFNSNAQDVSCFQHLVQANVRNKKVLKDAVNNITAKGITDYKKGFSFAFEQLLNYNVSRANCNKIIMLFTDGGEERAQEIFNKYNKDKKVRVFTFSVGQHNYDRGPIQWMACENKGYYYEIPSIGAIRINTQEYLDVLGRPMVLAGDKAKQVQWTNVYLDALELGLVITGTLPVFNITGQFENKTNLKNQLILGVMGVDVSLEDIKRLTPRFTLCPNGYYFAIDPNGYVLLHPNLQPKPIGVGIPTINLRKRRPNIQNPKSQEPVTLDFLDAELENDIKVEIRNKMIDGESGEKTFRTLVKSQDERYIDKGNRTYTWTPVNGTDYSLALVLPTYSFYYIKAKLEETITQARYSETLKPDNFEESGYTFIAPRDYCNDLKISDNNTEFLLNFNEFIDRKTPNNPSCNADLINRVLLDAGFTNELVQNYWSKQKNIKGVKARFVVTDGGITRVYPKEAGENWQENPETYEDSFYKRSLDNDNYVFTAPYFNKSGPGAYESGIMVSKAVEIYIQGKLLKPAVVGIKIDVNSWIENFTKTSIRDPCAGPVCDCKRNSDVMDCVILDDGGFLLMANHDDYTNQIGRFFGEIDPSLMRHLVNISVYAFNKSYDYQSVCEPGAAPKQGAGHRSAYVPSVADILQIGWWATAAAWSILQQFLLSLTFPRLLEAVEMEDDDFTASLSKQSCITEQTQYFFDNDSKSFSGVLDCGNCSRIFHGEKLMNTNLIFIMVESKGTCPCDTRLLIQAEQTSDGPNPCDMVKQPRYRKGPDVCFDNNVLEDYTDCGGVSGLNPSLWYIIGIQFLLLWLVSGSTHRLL
Sequence (P54284 whole entry, further chain): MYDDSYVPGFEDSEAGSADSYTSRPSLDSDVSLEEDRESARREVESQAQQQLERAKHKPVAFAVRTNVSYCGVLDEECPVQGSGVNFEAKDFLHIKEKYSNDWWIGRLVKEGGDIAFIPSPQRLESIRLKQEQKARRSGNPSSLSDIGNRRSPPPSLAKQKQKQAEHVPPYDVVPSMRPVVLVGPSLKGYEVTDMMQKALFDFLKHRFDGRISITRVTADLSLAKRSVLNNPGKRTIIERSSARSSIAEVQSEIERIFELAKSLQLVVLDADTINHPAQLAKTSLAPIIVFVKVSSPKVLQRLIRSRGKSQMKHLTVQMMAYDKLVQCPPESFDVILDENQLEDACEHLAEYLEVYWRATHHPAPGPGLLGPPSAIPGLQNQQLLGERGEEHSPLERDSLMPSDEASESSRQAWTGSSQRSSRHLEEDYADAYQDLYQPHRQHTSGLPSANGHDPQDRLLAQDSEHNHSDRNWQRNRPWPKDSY
procedure-details: cell-based
experimental-conditions: peptide at 20 μM; 100% = no change, <100% = inhibition
Your answer should be a plain number; it is taken to be in %.

> print(dat)
                                   substance  result.number
 1  38 (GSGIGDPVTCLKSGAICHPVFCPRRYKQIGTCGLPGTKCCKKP) [compound 38]             89
 2  21 (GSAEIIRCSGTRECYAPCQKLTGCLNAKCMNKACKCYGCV) [compound 21]            105
 3  12 (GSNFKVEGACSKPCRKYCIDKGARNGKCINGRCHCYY) [compound 12]            115
 4  26 (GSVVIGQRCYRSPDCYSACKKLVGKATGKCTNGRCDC) [compound 26]            121
 5  15 (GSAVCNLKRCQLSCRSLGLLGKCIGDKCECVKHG) [compound 15]            106
 6  10 (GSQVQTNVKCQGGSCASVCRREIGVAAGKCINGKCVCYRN) [compound 10]             94
 7  17 (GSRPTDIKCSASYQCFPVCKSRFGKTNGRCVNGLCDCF) [compound 17]            100
 8  11 (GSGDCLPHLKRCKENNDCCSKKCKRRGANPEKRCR) [compound 11]            103
 9  19 (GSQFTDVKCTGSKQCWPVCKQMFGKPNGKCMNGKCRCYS) [compound 19]             94
10  20 (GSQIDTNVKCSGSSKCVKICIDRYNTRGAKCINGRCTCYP) [compound 20]            105

Lookup: Name the recorded Activity of Cav2.2 with peptide (percentage of the reference compound) for 25 (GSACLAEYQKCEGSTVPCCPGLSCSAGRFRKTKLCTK) [compound 25] .
Found: 111

Lookup: Recorded Activity of Cav2.2 with peptide (percentage of the reference compound) for 14 (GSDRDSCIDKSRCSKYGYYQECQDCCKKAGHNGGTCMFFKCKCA) [compound 14] , please?
Found: 95

Lookup: Param item = 32 (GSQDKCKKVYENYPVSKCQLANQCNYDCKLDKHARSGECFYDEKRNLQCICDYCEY) [compound 32] ; retrieve measured Activity of Cav2.2 with peptide (percentage of the reference compound).
Found: 101
